Hello, the source for this data is the supplement of paper PMC11061612, in case you need it.

System: HuH-7 (Hepatocellular Carcinoma)
Assay: combination Emax (second highest fraction inhibited in the dose matrix, 72 h); higher = more inhibition; extreme values may be limits of the assay
measurementLabel: combination Emax
Give the figure by itself; no unit, no explanation.

Below, 2 molecules whose answers are already recorded.
# molecule, observed
data = [
    ("Cc1nc(Nc2ncc(C(=O)Nc3c(C)cccc3Cl)s2)cc(N2CCN(CCO)CC2)n1 [Dasatinib] + CC(=O)Nc1cccc(-n2c(=O)n(C3CC3)c(=O)c3c(Nc4ccc(I)cc4F)n(C)c(=O)c(C)c32)c1 [Trametinib] (first compound max 2 µM, 7x7, partner max 1 µM)", 0.662),
    ("CC1(C)CCC(CN2CCN(c3ccc(C(=O)NS(=O)(=O)c4ccc(NCC5CCOCC5)c([N+](=O)[O-])c4)c(Oc4cnc5[nH]ccc5c4)c3)CC2)=C(c2ccc(Cl)cc2)C1 [Venetoclax] + Cn1cnc2c(F)c(Nc3ccc(Br)cc3Cl)c(C(=O)NOCCO)cc21 [Selumetinib] (first compound max 1 µM, 7x7, partner max 3 µM)", 0.122),
]

Would you kindly look at the next entry?
Input: Recall the reported combination Emax of CC(=O)c1c(C)c2cnc(Nc3ccc(N4CCNCC4)cn3)nc2n(C2CCCC2)c1=O [Palbociclib] + Cn1cnc2c(F)c(Nc3ccc(Br)cc3Cl)c(C(=O)NOCCO)cc21 [Selumetinib] (first compound max 10 µM, 7x7, partner max 10 µM) when tested on HuH-7 (Hepatocellular Carcinoma).
Output: 0.344

* * *

System: FTC-133 (Thyroid Gland Carcinoma)
Test: Bliss excess, mean over the matrix (fraction); higher = more synergy
measurementLabel: Bliss excess
Would you mind answering with just the numeric figure?

Reference set (5 entries):
# molecule, Bliss excess
records = [
    ("Cc1c2c(nn1C)CSCc1cc(n(C)n1)CSc1cc(c3ccccc3c1)OCCCc1c(C(=O)O)n(C)c3c-2c(Cl)ccc13 [AZD5991] + C[C@@H]1COCCN1C2=NC(=NC(=C2)C3(CC3)[S@](=N)(=O)C)C4=C5C=CNC5=NC=C4 [AZD6738] (first compound max 1 µM, 7x7, partner max 10 µM)", 0.0969),
    ("COc1cccc(OCCCN)c1-c1cc(Nc2cnc(C#N)cn2)n[nH]1 [Prexasertib] + C=CCn1c(=O)c2cnc(Nc3ccc(N4CCN(C)CC4)cc3)nc2n1-c1cccc(C(C)(C)O)n1 [AZD1775] (first compound max 1 µM, partner max 1 µM)", -0.0182),
    ("C[C@@H](c1ccc2nccn2c1)n1nnc2ncc(-c3cnn(C)c3)nc21 [Savolitinib] + CC1(C)CCC(CN2CCN(c3ccc(C(=O)NS(=O)(=O)c4ccc(NCC5CCOCC5)c([N+](=O)[O-])c4)c(Oc4cnc5[nH]ccc5c4)c3)CC2)=C(c2ccc(Cl)cc2)C1 [Venetoclax] (first compound max 1 µM, 7x7, partner max 1 µM)", -0.0611),
    ("NC1(C(=O)N[C@@H](CCO)c2ccc(Cl)cc2)CCN(c2ncnc3[nH]ccc23)CC1 [Capivasertib] + COc1nnc2ccc(N3CCC(c4ccc(OCCN5CCN(C)C(=O)[C@H]5C)cc4)CC3)nn12 [AZD5153] (first compound max 10 µM, 7x7, partner max 1 µM)", 0.0923),
    ("CC1(C)CCC(CN2CCN(c3ccc(C(=O)NS(=O)(=O)c4ccc(NCC5CCOCC5)c([N+](=O)[O-])c4)c(Oc4cnc5[nH]ccc5c4)c3)CC2)=C(c2ccc(Cl)cc2)C1 [Venetoclax] + CN(C)CCCOc1ccc(-c2ccc3ncc4c(c3c2)n(C2CCOCC2)c(=O)n4C)cn1 [AZD0156] (first compound max 1 µM, 7x7, partner max 1 µM)", 0.0019),
]

Input: State its Bliss excess for this molecule: COc1cccc(OCCCN)c1-c1cc(Nc2cnc(C#N)cn2)n[nH]1 [Prexasertib] + C[C@@H]1COCCN1C2=NC(=NC(=C2)C3(CC3)[S@](=N)(=O)C)C4=C5C=CNC5=NC=C4 [AZD6738] (first compound max 1 µM, 7x7, partner max 10 µM)
Output: 0.0016

Input: Specify measured Bliss excess for COc1cc2c(cc1OCCCCCOc1cc3c(cc1OC)C(=O)N1C=C(C)C[C@H]1C=N3)N=C[C@@H]1CC(C)=CN1C2=O [SG3199] + O=C(c1cc(Cc2n[nH]c(=O)c3ccccc23)ccc1F)N1CCN(C(=O)C2CC2)CC1 [Olaparib] (first compound max 0.001 µM, 7x7, partner max 10 µM) .
Output: -0.013

* * *

Test system: MPP-89 (Mesothelioma)
Experiment: combination Emax (second highest fraction inhibited in the dose matrix, 72 h); higher = more inhibition; extreme values may be limits of the assay
Catalogue of combination Emax readings, one per entry.
Answer with the value's number alone.

# compound, testSystem, combination Emax
rows = [
    ("C[C@@H]1COCCN1c1cc(C2([S@](C)(=N)=O)CC2)nc(-c2ccnc3[nH]ccc23)n1 [AZD6738] + Nc1ccn([C@@H]2O[C@H](CO)[C@@H](O)C2(F)F)c(=O)n1 [Gemcitabine] (first compound max 10 µM, 7x7, partner max 0.3 µM)", "MPP-89 (Mesothelioma)", 0.63),
]

Input: Retrieve combination Emax measured for Cc1c2c(nn1C)CSCc1cc(n(C)n1)CSc1cc(c3ccccc3c1)OCCCc1c(C(=O)O)n(C)c3c-2c(Cl)ccc13 [AZD5991] + Cn1cnc2c(F)c(Nc3ccc(Br)cc3Cl)c(C(=O)NOCCO)cc21 [Selumetinib] (first compound max 1 µM, 7x7, partner max 3 µM) and print it.
Output: 0.193

Input: Provide combination Emax value for the following compound: Cc1c2c(nn1C)CSCc1cc(n(C)n1)CSc1cc(c3ccccc3c1)OCCCc1c(C(=O)O)n(C)c3c-2c(Cl)ccc13 [AZD5991] + C[C@@H](Nc1cc(F)cc(F)c1)c1cc(C(=O)N(C)C)cc2c(=O)cc(N3CCOCC3)oc12 [AZD8186] (first compound max 1 µM, 7x7, partner max 3 µM)
Output: 0.22

Input: Tell me combination Emax reported for COc1nnc2ccc(N3CCC(c4ccc(OCCN5CCN(C)C(=O)[C@H]5C)cc4)CC3)nn12 [AZD5153] + C=CCn1c(=O)c2cnc(Nc3ccc(N4CCN(C)CC4)cc3)nc2n1-c1cccc(C(C)(C)O)n1 [AZD1775] (first compound max 1 µM, partner max 1 µM)
Output: 0.482

* * *

Test system: HuH-7 (Hepatocellular Carcinoma)
Assay: Bliss excess, mean over the matrix (fraction); higher = more synergy
measurementLabel: Bliss excess

# compound, testSystem, Bliss excess
measured = [
    ("CC1(C)CCC(CN2CCN(c3ccc(C(=O)NS(=O)(=O)c4ccc(NCC5CCOCC5)c([N+](=O)[O-])c4)c(Oc4cnc5[nH]ccc5c4)c3)CC2)=C(c2ccc(Cl)cc2)C1 [Venetoclax] + Cn1cnc2c(F)c(Nc3ccc(Br)cc3Cl)c(C(=O)NOCCO)cc21 [Selumetinib] (first compound max 1 µM, 7x7, partner max 3 µM)", "HuH-7 (Hepatocellular Carcinoma)", -0.055),
    ("CC1(C)CCC(CN2CCN(c3ccc(C(=O)NS(=O)(=O)c4ccc(NCC5CCOCC5)c([N+](=O)[O-])c4)c(Oc4cnc5[nH]ccc5c4)c3)CC2)=C(c2ccc(Cl)cc2)C1 [Venetoclax] + C[C@@H](Nc1cc(F)cc(F)c1)c1cc(C(=O)N(C)C)cc2c(=O)cc(N3CCOCC3)oc12 [AZD8186] (first compound max 1 µM, 7x7, partner max 3 µM)", "HuH-7 (Hepatocellular Carcinoma)", -0.0304),
]

Okay, next one:
Input: Supply reported Bliss excess belonging to this compound: CC(=O)c1c(C)c2cnc(Nc3ccc(N4CCNCC4)cn3)nc2n(C2CCCC2)c1=O [Palbociclib] + Cn1cnc2c(F)c(Nc3ccc(Br)cc3Cl)c(C(=O)NOCCO)cc21 [Selumetinib] (first compound max 10 µM, 7x7, partner max 10 µM)
Output: -0.0584

* * *

Listing: Bliss excess of selected molecules
System: HuCCT1 (Biliary Tract Carcinoma)
Assay: Bliss excess, mean over the matrix (fraction); higher = more synergy
Please respond with just the number, no unit label.

# molecule, Bliss excess
records = [
    ("NC1(C(=O)N[C@@H](CCO)c2ccc(Cl)cc2)CCN(c2ncnc3[nH]ccc23)CC1 [Capivasertib] + CC(=O)c1c(C)c2cnc(Nc3ccc(N4CCNCC4)cn3)nc2n(C2CCCC2)c1=O [Palbociclib] (first compound max 10 µM, 7x7, partner max 10 µM)", -0.0067),
    ("Cc1nc(Nc2ncc(C(=O)Nc3c(C)cccc3Cl)s2)cc(N2CCN(CCO)CC2)n1 [Dasatinib] + CC(=O)Nc1cccc(-n2c(=O)n(C3CC3)c(=O)c3c(Nc4ccc(I)cc4F)n(C)c(=O)c(C)c32)c1 [Trametinib] (first compound max 2 µM, 7x7, partner max 1 µM)", -0.0272),
    ("C=CCn1c(=O)c2cnc(Nc3ccc(N4CCN(C)CC4)cc3)nc2n1-c1cccc(C(C)(C)O)n1 [AZD1775] + C[C@@H]1COCCN1C2=NC(=NC(=C2)C3(CC3)[S@](=N)(=O)C)C4=C5C=CNC5=NC=C4 [AZD6738] (first compound max 1 µM, partner max 10 µM)", -0.0205),
    ("Cc1c2c(nn1C)CSCc1cc(n(C)n1)CSc1cc(c3ccccc3c1)OCCCc1c(C(=O)O)n(C)c3c-2c(Cl)ccc13 [AZD5991] + CN(C)CCCOc1ccc(-c2ccc3ncc4c(c3c2)n(C2CCOCC2)c(=O)n4C)cn1 [AZD0156] (first compound max 1 µM, 7x7, partner max 1 µM)", -0.04),
]

Input: Report measured Bliss excess; entry is C[C@@H](Nc1cc(F)cc(F)c1)c1cc(C(=O)N(C)C)cc2c(=O)cc(N3CCOCC3)oc12 [AZD8186] + C1CN(CCC1(C(=O)N[C@@H](CCO)C2=CC=C(C=C2)Cl)N)C3=NC=NC4=C3C=CN4 [AZD5363] (first compound max 10 µM, 7x7, partner max 10 µM)
Output: -0.0171

Input: Give a short answer stating reported Bliss excess for COc1nnc2ccc(N3CCC(c4ccc(OCCN5CCN(C)C(=O)[C@H]5C)cc4)CC3)nn12 [AZD5153] + CC1(C)CCC(CN2CCN(c3ccc(C(=O)NS(=O)(=O)c4ccc(NCC5CCOCC5)c([N+](=O)[O-])c4)c(Oc4cnc5[nH]ccc5c4)c3)CC2)=C(c2ccc(Cl)cc2)C1 [Venetoclax] (first compound max 1 µM, 7x7, partner max 1 µM) .
Output: -0.0517

Input: Given the molecule CS(=O)(=O)CCNCc1ccc(-c2ccc3ncnc(Nc4ccc(OCc5cccc(F)c5)c(Cl)c4)c3c2)o1 [Lapatinib] + NC1(c2ccc(-c3nc4ccn5c(=O)[nH]nc5c4cc3-c3ccccc3)cc2)CCC1 [MK-2206] (first compound max 10 µM, 7x7, partner max 10 µM) , write its reported Bliss excess.
Output: -0.018

Input: Indicate the recorded Bliss excess value for this molecule: CN(CCO)CC[C@H](CSc1ccccc1)Nc1ccc(S(=O)(=O)NC(=O)c2ccc(N3CCC([C@@H](O)c4ccccc4-c4ccc(Cl)cc4)CC3)cc2)cc1S(=O)(=O)C(F)(F)F [AZD4320] + Nc1ccn([C@@H]2O[C@H](CO)[C@@H](O)C2(F)F)c(=O)n1 [Gemcitabine] (first compound max 1 µM, 7x7, partner max 0.3 µM)
Output: -0.0245

Input: Fill in reported Bliss excess for this entry: NC1(C(=O)N[C@@H](CCO)c2ccc(Cl)cc2)CCN(c2ncnc3[nH]ccc23)CC1 [Capivasertib] + CCN(CCO)CCCOc1ccc2c(Nc3cc(CC(=O)Nc4cccc(F)c4)[nH]n3)ncnc2c1 [AZD2811] (first compound max 10 µM, 7x7, partner max 1 µM)
Output: 0.0051

Input: State, in one line, measured Bliss excess of COc1cccc(OCCCN)c1-c1cc(Nc2cnc(C#N)cn2)n[nH]1 [Prexasertib] + C[C@@H]1COCCN1C2=NC(=NC(=C2)C3(CC3)[S@](=N)(=O)C)C4=C5C=CNC5=NC=C4 [AZD6738] (first compound max 1 µM, 7x7, partner max 10 µM)
Output: -0.0108

Input: Answer with the recorded Bliss excess of Cc1c2c(nn1C)CSCc1cc(n(C)n1)CSc1cc(c3ccccc3c1)OCCCc1c(C(=O)O)n(C)c3c-2c(Cl)ccc13 [AZD5991] + C=CCn1c(=O)c2cnc(Nc3ccc(N4CCN(C)CC4)cc3)nc2n1-c1cccc(C(C)(C)O)n1 [AZD1775] (first compound max 1 µM, partner max 1 µM) only.
Output: 0.0676

Input: # return recorded Bliss excess for entry Cc1c2c(nn1C)CSCc1cc(n(C)n1)CSc1cc(c3ccccc3c1)OCCCc1c(C(=O)O)n(C)c3c-2c(Cl)ccc13 [AZD5991] + CC1(C)CCC(CN2CCN(c3ccc(C(=O)NS(=O)(=O)c4ccc(NCC5CCOCC5)c([N+](=O)[O-])c4)c(Oc4cnc5[nH]ccc5c4)c3)CC2)=C(c2ccc(Cl)cc2)C1 [Venetoclax] (first compound max 1 µM, 7x7, partner max 1 µM)
Output: -0.0557

Input: Given COc1nnc2ccc(N3CCC(c4ccc(OCCN5CCN(C)C(=O)[C@H]5C)cc4)CC3)nn12 [AZD5153] + CCN(CCO)CCCOc1ccc2c(Nc3cc(CC(=O)Nc4cccc(F)c4)[nH]n3)ncnc2c1 [AZD2811] (first compound max 1 µM, 7x7, partner max 1 µM) , respond with its Bliss excess.
Output: -0.0331
